Source listed as ChEMBL document CHEMBL1208727.

Assay: AUCt in Wistar rat at 10 mg/kg, iv
Assay type: ADME, organism-based
Design: dose 10 mg/kg, route intravenous
Settings: plasma
result.type: AUC(0-t) (ng·h/mL)
Report the value in ng·h/mL with no unit label.

Query: # input compound: COc1ccc(S(=O)(=O)Nc2cc(Cl)cc(Cl)c2OC)cc1NC1CCN(C)CC1 ; wanted: its AUC(0-t)
Response: 2530

====

Assay: Cmax in Wistar rat at 10 mg/kg, iv
Type: ADME, organism-based
Set-up: dose 10 mg/kg, route intravenous
Conditions: in vivo
result.type: Cmax
Include the unit right after the number.

Query: Name the recorded Cmax for COc1ccc(S(=O)(=O)Nc2cc(Cl)cc(Cl)c2OC)cc1NC1CCN(C)CC1 .
Response: 1920 ng/mL

====

Assay: Oral bioavailability in Wistar rat at 10 mg/kg
Type: ADME, organism-based
Details: in vivo
result.type: bioavailability
Please report the result as a number followed by the unit.

Query: Data request, read-out bioavailability, for COc1ccc(S(=O)(=O)Nc2cc(Cl)cc(Cl)c2OC)cc1NC1CCN(C)CC1
Response: 38%

====

Experiment: Metabolic stability in human liver microsomes at […] after 30 mins
Format: ADME, Microsome
Conditions: read-out: Stability
Give remaining at 0.5 h, […] for every item shown.
Respond numerically; units are % and should not be typed.

Query: Which remaining at 0.5 h, […] is listed for COc1ccc(S(=O)(=O)Nc2cc(Cl)cc(Cl)c2OC)cc1NC1CCN(C)CC1 ?
Response: 21

Query: What does the record list as remaining at 0.5 h, […] for CCc1ccc(S(=O)(=O)Nc2ccccc2Br)cc1NC1CCN(C)CC1 ?
Response: 26

====

Biological target: 5-hydroxytryptamine receptor 6 (Homo sapiens, UniProt P50406)
Sequence (P50406 whole entry): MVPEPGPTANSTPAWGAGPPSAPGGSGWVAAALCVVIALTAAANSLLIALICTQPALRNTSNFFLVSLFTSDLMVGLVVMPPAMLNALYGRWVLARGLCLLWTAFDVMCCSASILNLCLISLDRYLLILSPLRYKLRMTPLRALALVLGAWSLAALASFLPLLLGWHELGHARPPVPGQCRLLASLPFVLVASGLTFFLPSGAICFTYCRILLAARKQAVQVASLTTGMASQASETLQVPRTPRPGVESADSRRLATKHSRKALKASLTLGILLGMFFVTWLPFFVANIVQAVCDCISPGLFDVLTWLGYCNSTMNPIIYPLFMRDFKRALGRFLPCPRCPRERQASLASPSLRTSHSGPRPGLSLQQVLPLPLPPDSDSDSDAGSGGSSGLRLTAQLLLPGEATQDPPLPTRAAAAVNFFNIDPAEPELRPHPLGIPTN
Test: Binding affinity to human recombinant 5HT6 receptor expressed in CHO cells coexpressing pCRE-Luc assessed as inhibition of serotonin-induced increase in cAMP level by luciferase reporter gene assay
result.type: Ki

Query: If you can, please state the reported Ki value of COc1ccc(NS(=O)(=O)c2ccccc2OC(F)F)cc1N1CCNCC1 .
Response: < 10 nM

====

Target: Cytochrome P450 3A4 (Homo sapiens, UniProt P08684)
Sequence (P08684 whole entry): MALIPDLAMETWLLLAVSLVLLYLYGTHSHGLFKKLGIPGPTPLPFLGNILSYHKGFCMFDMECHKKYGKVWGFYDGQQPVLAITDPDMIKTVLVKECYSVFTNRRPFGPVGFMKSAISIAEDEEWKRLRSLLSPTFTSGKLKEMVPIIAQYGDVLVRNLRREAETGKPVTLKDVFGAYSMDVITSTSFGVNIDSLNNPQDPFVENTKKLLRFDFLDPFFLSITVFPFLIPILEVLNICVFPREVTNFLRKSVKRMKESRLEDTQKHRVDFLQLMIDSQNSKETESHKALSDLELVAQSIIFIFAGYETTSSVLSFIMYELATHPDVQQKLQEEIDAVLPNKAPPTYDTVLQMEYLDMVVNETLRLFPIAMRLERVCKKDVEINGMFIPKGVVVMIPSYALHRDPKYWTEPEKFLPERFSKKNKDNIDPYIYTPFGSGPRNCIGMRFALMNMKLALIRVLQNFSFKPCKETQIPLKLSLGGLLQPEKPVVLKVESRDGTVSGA
Assay: Inhibition of human CY3A4
result.type: pIC50
Schema: pIC50 number; meaning minus log10 of the concentration expressed in molar units.

Query: Notebook entry, Cytochrome P450 3A4 (Homo sapiens, UniProt P08684) assay: pIC50 of COc1ccc(S(=O)(=O)Nc2cc(Cl)cc(Cl)c2OC)cc1NC1CCN(C)CC1 = ?
Response: 5.07

Query: Record lookup: for Cytochrome P450 3A4 (Homo sapiens, UniProt P08684), what pIC50 belongs to CCc1ccc(S(=O)(=O)Nc2ccccc2Br)cc1NC1CCN(C)CC1 ?
Response: 5.02

====

Assay: Clearance in Wistar rat at 10 mg/kg, po
Type: ADME, organism-based
Parameters: dose 10 mg/kg, route oral
Details: in vivo
result.type: CL/F (mL/min/kg)
The figure you give is taken to be in mL/min/kg; do not add the unit.

Query: Dear colleague, I am looking for the recorded CL/F of the following molecule: COc1ccc(S(=O)(=O)Nc2cc(Cl)cc(Cl)c2OC)cc1NC1CCN(C)CC1
Response: 207

====

For each entry below, report its Kb value.
Molecular target: 5-hydroxytryptamine receptor 6 (Homo sapiens, UniProt P50406)
Experiment: Binding affinity to human recombinant 5HT6 receptor expressed in CHO cells coexpressing pCRE-Luc assessed as inhibition of serotonin-induced increase in cAMP level by luciferase reporter gene assay
Type: cell-based
Numeric only. Scale: nM

Query: Could you tell me which Kb is on file for COc1ccc(S(=O)(=O)NCCc2ccccc2Cl)cc1NC1CCN(C)CC1 ?
Response: 26

Query: What value of Kb has been reported for the following compound? Cc1ccc(S(=O)(=O)Nc2ccccc2Br)cc1NC1CCN(C)CC1
Response: 1.31

Query: Record request: Kb value, item COc1ccc(S(=O)(=O)Nc2ccccc2Br)cc1NC1CCN(C)CC1
Response: 0.296

Query: Item under review: COc1ccc(S(=O)(=O)Nc2ccccc2Cl)cc1N(C)C1CCNCC1 . Reported Kb?
Response: 0.86

Query: Fill in the blank: the reported Kb of COc1ccc(S(=O)(=O)Nc2ccccc2)cc1NC1CCN(C)CC1 is ____.
Response: 1.23

Query: Endpoint output: Kb of COc1ccc(S(=O)(=O)NCc2ccccc2)cc1NC1CCNCC1 . Value?
Response: 4.26

Query: I would be grateful if you could share the reported Kb for CN1CCC(Nc2cccc(S(=O)(=O)Nc3ccc(Br)cc3F)c2)CC1 .
Response: 12.2

Query: Give its Kb value. Item: COc1ccc(S(=O)(=O)Nc2cc(C)ccc2OC)cc1NC1CCN(C)CC1
Response: 0.02

Query: GET /values?readout=Kb&item= COc1ccc(S(=O)(=O)NCc2ccccc2)cc1N(C)C1CCNCC1
Response: 2.65

====

Experiment: AUCt in Wistar rat at 10 mg/kg, po
Type: ADME, organism-based
Parameters: dose 10 mg/kg, route oral
Conditions: plasma
result.type: AUC(0-t) (ng·h/mL)
Output spec: scalar in ng·h/mL, unitless text.

Query: Which measured AUC(0-t) value corresponds to COc1ccc(S(=O)(=O)Nc2cc(Cl)cc(Cl)c2OC)cc1NC1CCN(C)CC1 ?
Response: 941

====

Assay: Metabolic stability in Wistar rat liver microsomes at […] after 30 mins
Format: ADME, Microsome
Details: read-out: Stability
result.type: remaining at 0.5 h, […] (%)
Expressed in %, but write only the number.

Query: Item COc1ccc(S(=O)(=O)Nc2cc(Cl)cc(Cl)c2OC)cc1NC1CCN(C)CC1 has what recorded remaining at 0.5 h, […]?
Response: 77

Query: remaining at 0.5 h, […]; subject: CCc1ccc(S(=O)(=O)Nc2ccccc2Br)cc1NC1CCN(C)CC1
Response: 99

====

Target: UniProtKB P50406
Test: Binding affinity to human recombinant 5HT6 receptor expressed in CHO cells coexpressing pCRE-Luc assessed as inhibition of serotonin-induced increase in cAMP level by luciferase reporter gene assay
Assay type: cell-based
Please respond with reported Kb for every item in the list.
# number only, unit pM dropped from output

Query: Which Kb is listed for CCN(c1cc(S(=O)(=O)Nc2ccccc2)ccc1OC)C1CCN(C)CC1 ?
Response: 18600

Query: Recorded Kb of COc1ccc(S(=O)(=O)Nc2ccccc2Cl)cc1NC1CCNCC1 , please.
Response: 480

Query: Kb; subject: COc1ccc(S(=O)(=O)Nc2ccccc2Cl)cc1NC1CCN(C)CC1
Response: 584

Query: Recorded Kb for CCc1ccc(S(=O)(=O)Nc2ccccc2Br)cc1NC1CCNCC1 , please?
Response: 100

====

Experiment: Cmax in Wistar rat at 10 mg/kg, po
Format: ADME, organism-based
Set-up: dose 10 mg/kg, route oral
Conditions: in vivo
result.type: Cmax (ng/mL)
# output: bare number, implied unit ng/mL

Query: State the recorded Cmax for this entry: COc1ccc(S(=O)(=O)Nc2cc(Cl)cc(Cl)c2OC)cc1NC1CCN(C)CC1
Response: 536

====

Assay: Half life in Wistar rat at 10 mg/kg, iv
Assay type: ADME, organism-based
Set-up: dose 10 mg/kg, route intravenous
Settings: in vivo
result.type: half-life (h)
The reply should be a number in h, with the unit left off.

Query: Recorded half-life of COc1ccc(S(=O)(=O)Nc2cc(Cl)cc(Cl)c2OC)cc1NC1CCN(C)CC1 , please.
Response: 2.96

====

Target: UniProt:P50406
Assay: Binding affinity to human recombinant 5HT6 receptor expressed in CHO cells coexpressing pCRE-Luc assessed as inhibition of serotonin-induced increase in cAMP level by luciferase reporter gene assay
Type: cell-based
Can you tell me log10 of Kb for the items I'm about to list?
// stored as log10 of Kb expressed in nM

Query: Query (molecule): COc1ccc(S(=O)(=O)NCCc2ccccc2Br)cc1NC1CCN(C)CC1 ; field requested: log10 of Kb
Response: 1.58

Query: log10 of Kb lookup needed for COc1ccc(S(=O)(=O)Nc2cc(Cl)cc(Cl)c2OC)cc1NC1CCN(C)CC1 , thanks.
Response: -1.70

Query: What value of log10 of Kb has been reported for the following molecule? CCc1ccc(S(=O)(=O)Nc2cc(Cl)cc(Cl)c2OC)cc1NC1CCN(C)CC1
Response: 0.22

Query: Entry COc1ccc(S(=O)(=O)NCc2ccccc2)cc1N(C)C1CCN(C)CC1 : reported log10 of Kb = ?
Response: 0.59

Query: Look at this molecule and give its reported log10 of Kb. COc1ccc(NS(=O)(=O)c2cccc(NC3CCN(C)CC3)c2)c(OC)c1
Response: 1.00

Query: What value of log10 of Kb has been recorded for this entry: COc1ccc(S(=O)(=O)NCc2ccccc2)cc1NC1CCN(C)CC1
Response: 0.53

Query: Which value of log10 of Kb has been reported for COc1ccc(S(=O)(=O)Nc2ccccc2Br)cc1NC1CCNCC1 in the records?
Response: -0.22

Query: What value of measured log10 of Kb is listed for CCc1ccc(S(=O)(=O)Nc2ccccc2Br)cc1NC1CCN(C)CC1 ?
Response: -0.72

Query: Data request, read-out log10 of Kb, for COc1ccc(OC)c(NS(=O)(=O)c2cccc(NC3CCN(C)CC3)c2)c1
Response: 1.20

Query: Query (molecule): COc1ccc(S(=O)(=O)Nc2ccccc2Br)cc1N(C)C1CCNCC1 ; field requested: log10 of Kb
Response: -0.70
